# SYSTEM_UNDER_TEST: Human immunodeficiency virus type 1 protease (Human immunodeficiency virus 1, UniProt Q72874)
# TEST_DETAILS: Inhibitory activity was evaluated against HIV-1 protease
pIC50: −log10 of the molar value.
PROPERTY: pIC50

| COMPOUND | OBS_VALUE |
| --- | --- |
| OC1N=C(Cc2ccccc2)P(O)(O)=C(Cc2ccccc2)N1 (stereo unspecified) | < 4.00 |
